Tgt: Tumor necrosis factor receptor superfamily member 10B (Homo sapiens)
Test protocol: caspase-8 TRAIL sensitization, hit retest, confirmation, cell-based, NB7+caspase-8, with/without TRAIL, luminescence panel (AID 651596)
Protocol conditions: NB7 neuroblastoma + caspase-8, TRAIL sensitization, luminescence viability, with TRAIL, mean of runs, at 10 µM, stronger effect = higher value
Endpoint: activity (%)
Give just the numeric value; % need not be written.

The following molecules have reported results that may help.
CNc1nc(N/N=C/c2cc([N+](=O)[O-])ccc2F)nc(Nc2ccccc2)n1	71.5
CN(C)S(=O)(=O)c1ccc(C(=O)Nc2nnc(SCC(=O)N3CCOCC3)s2)cc1	62.7

Please indicate activity recorded for Cc1ccnc(NC(=O)c2sc3ccccc3c2Cl)c1
91.6
